Please provide measured pIC50 for the entries that follow.
Biological target: human HPK1 (MAP4K1) (Homo sapiens (Human), UniProt Q92918)
Sequence (Q92918 17-274): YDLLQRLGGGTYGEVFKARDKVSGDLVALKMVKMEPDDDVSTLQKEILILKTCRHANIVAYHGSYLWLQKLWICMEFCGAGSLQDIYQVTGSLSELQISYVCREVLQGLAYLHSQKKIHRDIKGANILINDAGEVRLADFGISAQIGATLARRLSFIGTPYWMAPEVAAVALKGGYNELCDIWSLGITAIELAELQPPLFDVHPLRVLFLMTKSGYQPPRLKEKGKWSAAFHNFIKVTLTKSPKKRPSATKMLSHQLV
Assay: HPK1 IC50 Assay (TR-FRET peptide phosphorylation)
Assay type: biochemical
Details: recombinant HPK1 kinase domain 0.15 nM, 10 μM ATP, 1 μM STK S1 peptide; geometric mean of multiple experiments
Protocol: The enzymatic activity of human HPK1 (MAP4K1) was monitored in a biochemical assay in the presence or absence of compounds and using a synthetic peptide substrate. An increase in phosphorylation of the peptide by HPK1 was indicative of its kinase activity. […] Data in Table 1 were normalized based on positive (staurosporine) and negative (DMSO) controls. […] IC50 values from multiple experiments were averaged by geometric mean and the standard deviation was calculated.
# pIC50: negative log10 of molar concentration; output just the value

Exercise: Would you kindly share the measured pIC50 for CNC(=O)c1cc(Nc2nc(-c3ccc4c(c3)N([C@H]3C[C@@H](N5CC[C@@H](F)C5)C3)C(=O)C4(C)C)cc3ncn(C(C)C)c23)ccc1C [Example 4] ?
Solution: 10.00

Exercise: Would you kindly share the measured pIC50 for CNC(=O)c1cc(Nc2nc(-c3ccc4c(c3)N([C@H]3C[C@@H](N5C6CCC5COC6)C3)C(=O)C4(C)C)cc3ncn(C(C)C)c23)c(F)cc1C [Example 8] ?
Solution: 10.10

Exercise: Would you kindly share the measured pIC50 for Cc1c(C(=O)NC2(CF)CC2)cc(Nc2nc(-c3cnc4c(c3)N([C@H]3C[C@@](C)(N5CCCCC5)C3)C(=O)C4(C)C)cc3ncn(C(C)C)c23)c(F)c1F [Example 186] ?
Solution: 10.15

Exercise: Would you kindly share the measured pIC50 for CNC(=O)c1cc(Nc2nc(-c3ccc4c(c3)N(C3CC(N5CCC[C@H](C(F)F)C5)C3)C(=O)C4(C)C)cc3ncn(C(C)C)c23)ccc1C (stereo partly drawn) [Example 105A] ?
Solution: 9.70

Exercise: Would you kindly share the measured pIC50 for Cc1c(C(=O)NC2(C(F)F)CC2)cc(Nc2nc(-c3cnc4c(c3)N(C3CC(C)(N5CCC6C[C@@H]6C5)C3)C(=O)C4(C)C)cc3ncn(C(C)C)c23)c(F)c1F (stereo partly drawn) [Example 231] ?
Solution: 10.00

Exercise: Would you kindly share the measured pIC50 for CCNC(=O)c1ccc(F)c(Nc2nc(-c3cnc4c(c3)N([C@H]3C[C@@](C)(N5CCCCC5)C3)C(=O)C4(C)C)cc3ncn(C(C)C)c23)c1 [Example 223] ?
Solution: 9.70

Exercise: Would you kindly share the measured pIC50 for CC[C@H](C)n1cnc2cc(-c3ccc4c(c3)N([C@H]3C[C@@H](N5CCCCC5)C3)C(=O)C4(C)C)nc(Nc3ccc(Cl)c(C(=O)NC)c3)c21 [Example 114] ?
Solution: 10.30

Exercise: Would you kindly share the measured pIC50 for Cc1cc(F)c(Nc2nc(-c3ccc4c(c3)N([C@H]3C[C@@H](N5CCC(C)(C)C5)C3)C(=O)C43CCN(C4COC4)CC3)cc3ncn(C(C)C)c23)cc1C(=O)NC(C)C [Example 100] ?
Solution: 9.52

Exercise: Would you kindly share the measured pIC50 for CNC(=O)c1cc(Nc2nc(-c3ccc4c(c3)N([C@H]3C[C@@H](N5CC[C@H](F)C5)C3)C(=O)C4(C)C)cc3ncn(C(C)C)c23)ccc1C [Example 5] ?
Solution: 9.70

Exercise: Would you kindly share the measured pIC50 for CC(C)n1cnc2cc(-c3cnc4c(c3)N(C3CC(C)(N5CCC6C[C@@H]6C5)C3)C(=O)C4(C)C)nc(Nc3cc(C(=O)NC4(CF)CC4)c(Cl)c(F)c3F)c21 (stereo partly drawn) [Example 258] ?
Solution: 10.05

Exercise: Would you kindly share the measured pIC50 for CNC(=O)c1cc(Nc2nc(-c3ccc4c(c3)N([C@H]3C[C@@H](N5CCCCC5)C3)C(=O)C43CCN(C(C)=O)CC3)cc3ncn(C4CC4)c23)cc(C)c1C [Example 96] ?
Solution: 9.70

Exercise: Would you kindly share the measured pIC50 for Cc1cc(F)c(Nc2nc(-c3cnc4c(c3)N([C@H]3C[C@@H](N5CCCCC5)C3)C(=O)C4(C)C)cc3ncn(C(C)C)c23)cc1C(=O)NC1(C(F)F)CC1 [Example 67] ?
Solution: 9.52

Exercise: Would you kindly share the measured pIC50 for CNC(=O)c1cc(Nc2nc(-c3ccc4c(c3)N([C@H]3C[C@@H](N5CCCCC5)C3)C(=O)C43CCN(C(=O)C4(C)CC4)CC3)cc3ncn(C(C)C)c23)ccc1C [Example 152] ?
Solution: 9.70

Exercise: Would you kindly share the measured pIC50 for Cc1c(C(=O)NC2(C(F)F)CC2)cc(Nc2nc(-c3cnc4c(c3)N([C@H]3C[C@@](C)(N5CCCCC5)C3)CC4(C)C)cc3ncn(C(C)C)c23)c(F)c1F [Example 214] ?
Solution: 10.00

Exercise: Would you kindly share the measured pIC50 for CCNC(=O)c1cc(Nc2nc(-c3ccc4c(c3)N([C@H]3C[C@@H](N5CCCCC5)C3)C(=O)C43CCN(C4COC4)CC3)cc3ncn(C(C)C)c23)c(F)cc1C [Example 69] ?
Solution: 10.00

Exercise: Would you kindly share the measured pIC50 for CNC(=O)c1cc(Nc2nc(-c3ccc4c(c3)N([C@H]3C[C@@H](NC(C)C)C3)C(=O)C4(C)C)cc3ncn(C(C)C)c23)c(F)cc1C [Example 14] ?
Solution: 9.52

Exercise: Would you kindly share the measured pIC50 for CCNC(=O)c1cc(Nc2nc(-c3ccc4c(c3)N([C@H]3C[C@@H](N5CCC[C@@H](F)C5)C3)C(=O)C43CCN(C4COC4)CC3)cc3ncn(C(C)C)c23)c(F)cc1C [Example 171] ?
Solution: 9.70

Exercise: Would you kindly share the measured pIC50 for CCNC(=O)c1cc(Nc2nc(-c3ccc4c(c3)N([C@H]3C[C@@H](N5CCCCC5)C3)C(=O)C43CCN(C(C)=O)CC3)cc3ncn(C(C)C)c23)ccc1C [Example 130] ?
Solution: 10.00

Exercise: Would you kindly share the measured pIC50 for CC[C@H](C)n1cnc2cc(-c3ccc4c(c3)N([C@H]3C[C@@H](N5CCCCC5)C3)C(=O)C43CCN(C(=O)OC)CC3)nc(Nc3ccc(C)c(C(=O)NC)c3)c21 [Example 169] ?
Solution: 10.00

Exercise: Would you kindly share the measured pIC50 for CC(C)n1cnc2cc(-c3cnc4c(c3)N([C@H]3C[C@@](C)(N5CC6CC6C5)C3)C(=O)C4(C)C)nc(Nc3cc(C(=O)NC4(C(F)F)CC4)c(Cl)c(F)c3F)c21 (stereo partly drawn) [Example 234] ?
Solution: 9.52

Exercise: Would you kindly share the measured pIC50 for CNC(=O)c1cc(Nc2nc(-c3ccc4c(c3)N([C@H]3C[C@@H](N5CCCCC5)C3)C(=O)C43CCN(C(=O)C(C)C)CC3)cc3ncn(C4CC4)c23)ccc1C [Example 52] ?
Solution: 10.05

Taken from patent US11203591B2.
